- target_or_system: human PPARalpha (Homo sapiens)
- Construct: human PPARalpha receptor (amino acids S167-Y468); expressed in transfected cells; host or cells: HEK cells (human embryo kidney), stably transfected with a pcDNA3-based plasmid
- Sequence (Q07869 167-468): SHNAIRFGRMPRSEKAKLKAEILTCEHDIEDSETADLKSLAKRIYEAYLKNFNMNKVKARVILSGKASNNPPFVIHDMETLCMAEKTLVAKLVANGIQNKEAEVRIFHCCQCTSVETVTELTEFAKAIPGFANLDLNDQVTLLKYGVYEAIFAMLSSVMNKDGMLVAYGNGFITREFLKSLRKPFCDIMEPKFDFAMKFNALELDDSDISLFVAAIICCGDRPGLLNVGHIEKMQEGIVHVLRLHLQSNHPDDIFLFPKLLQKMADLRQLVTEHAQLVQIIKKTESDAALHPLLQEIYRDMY
- assay_method_text: Cellular PPARalpha assay (stably transfected HEK PPARalpha reporter cell line, luciferase)
- Type: cell-based
- experimental_context: GR-GAL4-humanPPARalpha-LBD, luciferase readout
Please respond with reported EC50 for every item in the list.
Answer with a number only, understood to be in nM.

Param item = `Cc1cccc(-c2nc(CO[C@H]3CCC[C@@H](OCCOc4cccc(C)c4C(=O)O)C3)c(C)o2)c1` ; retrieve measured EC50. 106

Could you tell me which EC50 is on file for Cc1ccc(-c2nc(CO[C@@H]3CCC[C@H](Cn4c(C(=O)O)cc5ccccc54)C3)c(C)o2)cc1 (racemic) ? 24

Bench note: what EC50 did `COc1ccc2cc(C(=O)O)n(CCO[C@@H]3CCC[C@H](OCc4nc(-c5cccc(C)c5)oc4C)C3)c2c1` show? 361

Any idea what its EC50 is? The compound is `Cc1cccc(-c2nc(CO[C@H]3CCC[C@@H](OCCOc4cccc(C)c4[N+](=O)[O-])C3)c(C)o2)c1` 530

The reported numbers originate from patent US8048901B2.
